Source listed as ChEMBL document CHEMBL1614632.

- Protocol Details: clinical
- Cond: human, in vivo, iv
Measured MRT of individual entries
Measured Property: MRT

query_smiles=CCC[C@@H]1C[C@@H](C(=O)N[C@@H]([C@H]2O[C@H](SC)[C@H](O)[C@@H](O)[C@H]2O)[C@H](C)Cl)N(C)C1 measured_value="2.9 h"
query_smiles=C#C[C@]1(OS(=O)(=O)O)CC[C@H]2[C@@H]3CCc4cc(O)ccc4[C@H]3CC[C@@]21C measured_value="7.8 h"
query_smiles=NC[C@@H]1CC[C@@H](N)[C@@H](O[C@H]2[C@H](O)[C@@H](O[C@H]3O[C@H](CO)[C@@H](O)[C@H](N)[C@H]3O)[C@H](N)C[C@@H]2N)O1 measured_value="2.7 h"

###

Measured half-life of individual entries
- Protocol Details: clinical
- Cond: human, in vivo, iv, t1/2
Measured Property: half-life (h)

compound="CN1CCCC(n2nc(Cc3ccc(Cl)cc3)c3ccccc3c2=O)CC1 (stereo not given)" measured_property=half-life measured_value=22
compound="C[C@@H](O[C@H]1OCCN(Cc2n[nH]c(=O)[nH]2)[C@H]1c1ccc(F)cc1)c1cc(C(F)(F)F)cc(C(F)(F)F)c1 [APREPITANT]" measured_property=half-life measured_value=13
compound="O=C1NCC2(CCN(CCc3ccccc3)CC2)O1 [FENSPIRIDE]" measured_property=half-life measured_value=14
compound=CC[C@H]1OC(=O)[C@H](C)[C@@H](O[C@H]2C[C@@](C)(OC)[C@@H](O)[C@H](C)O2)[C@H](C)[C@@H](O[C@@H]2O[C@H](C)C[C@H](N(C)C)[C@H]2O)[C@](C)(O)C[C@@H](C)CN(C)[C@H](C)[C@@H](O)[C@]1(C)O measured_property=half-life measured_value=69
compound=CC1(C)S[C@@H]2[C@H](NC(=O)Cc3ccccc3)C(=O)N2[C@H]1C(=O)O measured_property=half-life measured_value=0.7
compound=Nc1c2c(nc3ccccc13)CCCC2 measured_property=half-life measured_value=3.3
compound=Nc1ncn([C@H]2C[C@H](O)[C@@H](CO)O2)c(=O)n1 measured_property=half-life measured_value=0.58
compound=CO/N=C(\C(=O)N[C@@H]1C(=O)N2C(C(=O)O)=C(COC(C)=O)CS[C@H]12)c1csc(N)n1 measured_property=half-life measured_value=1.2
compound=COc1ccc([C@]2(C#N)CC[C@@H](C(=O)O)CC2)cc1OC1CCCC1 measured_property=half-life measured_value=7.9
compound="C=CCC1(C(C)C#CCC)C(=O)N=C(O)N(C)C1=O (stereo not given)" measured_property=half-life measured_value=1.6
compound=COc1cc2c3cc1Oc1cc(ccc1O)C[C@@H]1c4c(cc(OC)c(O)c4Oc4ccc(cc4)C[C@@H]3N(C)CC2)CC[N+]1(C)C.[Cl-] measured_property=half-life measured_value=2
compound=CO[C@]12CC[C@@]3(C[C@@H]1[C@](C)(O)C(C)(C)C)[C@H]1Cc4ccc(O)c5c4[C@@]3(CCN1CC1CC1)[C@H]2O5 measured_property=half-life measured_value=3.2
compound=Cc1cc(O)c2c(=O)c3c(O)cc(O)c4c5c(O)cc(O)c6c(=O)c7c(O)cc(C)c8c1c2c(c34)c(c78)c65 measured_property=half-life measured_value=42
compound=O=C(O)C(Cl)Cl measured_property=half-life measured_value=0.65
compound=CC(=N)N1CC[C@H](SC2=C(C(=O)O)N3C(=O)[C@H]([C@@H](C)O)[C@H]3C2)C1 measured_property=half-life measured_value=0.96
